TEST_NAME: gradient 5% acetonitrile 3 min, to 50% in 2 min, to 85% in 15 min, held 3 min, 100 µL/min
PROTOCOL_CONDITIONS: column: Zorbax Extend-C18 2.1 x 50 mm; eluents: water / acetonitrile, 0.1% formic acid
ENDPOINT: RP-LC retention time (s)

Solved cases (3 shown):
c1ccc(-c2nc(N3CCCCCC3)c3ccccc3n2)cc1
768
COc1ccc(OCc2nc(CCN(C)C(=O)COc3ccccc3)no2)cc1
852
Fc1cccc(CN2CC[C@@H]3CN(Cc4ccccc4)[C@@H]3C2)c1
624

a. Cc1sc(NC(=O)CCC2CCCCC2)nc1-c1ccc2c(c1)NC(=O)CO2
b. Cc1ccc(-n2c(=O)n(CC(=O)NCCN3CCCCC3)c3cccnc32)cc1
input: // max by RP-LC retention time over [ a , b ] # reply format: chosen label
output: a

----------
TEST_NAME: gradient 5% acetonitrile 3 min, to 50% in 2 min, to 85% in 15 min, held 3 min, 100 µL/min
PROTOCOL_CONDITIONS: column: Zorbax Extend-C18 2.1 x 50 mm; eluents: water / acetonitrile, 0.1% formic acid
ENDPOINT: RP-LC retention time (s)

CC(C)n1c(CCNC(=O)c2cc(F)cc(F)c2)nc2cccnc21
694
CCc1ccc(S(=O)(=O)N2CCC(N3CCN(Cc4ccccc4)C(=O)C3=O)CC2)cc1
859
COCC1CN(S(=O)(=O)c2ccc(C#N)cc2)CC12CCNCC2 (stereo unspecified)
608
OC[C@@H]1CN(Cc2ccco2)C[C@H]1c1nc(-c2ccncc2)no1
547
CCN(CC)c1ccc(NC(=O)C2CCCN(c3nc4ccccc4nc3C(F)(F)F)C2)c(C)c1 (stereo unspecified)
825
Cn1c(=O)c(=O)n(C)c2cc(N3CCCC3)c(NC(=O)Cc3ccccc3Cl)cc21
793
COCCCNC(=O)N1CCN(Cc2nc3cccnc3n2-c2cc(C)cc(C)c2)CC1
650
Cn1cnc(S(=O)(=O)N2CCC(C(=O)Nc3ccc(F)c(F)c3)CC2)c1
709
O=C(Cn1nc(C(=O)N2CCCC2)c2ccccc21)N1CCC(N2CCCCC2)CC1
581
COc1ccc(CCNC(=O)C2CCN(c3ncnc4c3oc3ccccc34)CC2)cc1OC
683
CN1CCC(N(C)C(=O)CN2C(=O)C(Oc3ccc(F)cc3)C23CCCCC3)CC1 (stereo unspecified)
680
O=C(c1ccsc1)N1CCC(Cc2nnc(-c3ccccc3)o2)CC1
774
CCN1C(=O)CCc2cc(NC(=O)COc3ccc(F)cc3)ccc21
801
CCCc1noc(-c2ccnc(-n3ncc(C(=O)NC4CCCC4)c3C)c2)n1
640
CCOC(=O)c1c(C)[nH]c(CCC(=O)NCCc2c[nH]c3ccccc23)c1C
715
CCCNc1cc(N2CCCC(CCC(=O)Nc3ccc(OCC)cc3)C2)ncn1 (stereo unspecified)
728

----------
TEST_NAME: gradient 5% acetonitrile 3 min, to 50% in 2 min, to 85% in 15 min, held 3 min, 100 µL/min
PROTOCOL_CONDITIONS: column: Zorbax Extend-C18 2.1 x 50 mm; eluents: water / acetonitrile, 0.1% formic acid
ENDPOINT: RP-LC retention time (s)

Cc1cc(C)n(CC(=O)N2CCCCCC2c2nnc(C)o2)n1 (stereo unspecified)
631
COC(=O)C1=CN(c2ccc(F)cc2)c2cc(F)ccc2S1(=O)=O
789
COc1ccc(OC)c(NC(=O)C2CCCN(S(=O)(=O)c3cc(-c4noc(C)n4)cs3)C2)c1 (stereo unspecified)
966
Cc1cc(C)cc(NC(=O)Cn2cnc(C)c(C)c2=O)c1
710

A. CS(=O)(=O)N1CCCc2cc(C(=O)Nc3ccc(Br)cc3F)ccc21
B. O=C(Cc1c[nH]c2ccccc12)N1CCN(C(=O)c2cc(-c3cccnc3)n[nH]2)CC1
input: Pick one: A or B . Which one has the lower reported RP-LC retention time? Answer format: the label of the selected item.
output: B
(B: 610 s, A: 951 s)

a. CCn1nc(C)n2cc(S(=O)(=O)NC(C)c3ccccc3)cc2c1=O (stereo unspecified)
b. Cc1sc2ccn(CC(C)C)c(=O)c2c1C(=O)NCCN1CCN(C)CC1
input: Recorded RP-LC retention time values differ for a and b ; which one is higher? Lab log: write the label of the selected item as the result.
output: a
(a: 882 s, b: 574 s)

From: the METLIN SMRT retention time set (Domingo-Almenara et al. 2019)
